# Type: in vivo
# measurement parameters: male, human, plasma, po, 200 mg

# substance smiles, Cmax
measured = [
    ("CS(=O)(=O)n1cc2c(n1)CN([C@H]1CO[C@H](c3cc(F)ccc3F)[C@@H](N)C1)C2", "3.85 µM"),
]

###

# Assay type: in vivo
# measurement parameters: male, human, plasma, po, 400 mg

# substance smiles, Cmax / µM
measured = [
    ("CS(=O)(=O)n1cc2c(n1)CN([C@H]1CO[C@H](c3cc(F)ccc3F)[C@@H](N)C1)C2", 9.29),
]

###

# Type: in vivo, human
# measurement parameters: male, human, plasma, oral, 25 mg
readout: half-life (h)

# compound, value observed
measured = [
    ("CS(=O)(=O)n1cc2c(n1)CN([C@H]1CO[C@H](c3cc(F)ccc3F)[C@@H](N)C1)C2 [omarigliptin]", 66.7),
]

###

# Format: in vivo
# measurement parameters: male, human, plasma, po, 5 mg

# substance smiles, Cmax, nM
measured = [
    ("CS(=O)(=O)n1cc2c(n1)CN([C@H]1CO[C@H](c3cc(F)ccc3F)[C@@H](N)C1)C2", 88.2),
]

###

# Format: in vivo
# measurement parameters: male, human, plasma, po, 400 mg

# substance smiles, scale unit, AUC(0-inf)
records = [
    ("CS(=O)(=O)n1cc2c(n1)CN([C@H]1CO[C@H](c3cc(F)ccc3F)[C@@H](N)C1)C2", "µM·h", 335),
]

###

# Format: in vivo
# measurement parameters: male, human, plasma, po, 12.5 mg

# substance smiles, Tmax
measured = [
    ("CS(=O)(=O)n1cc2c(n1)CN([C@H]1CO[C@H](c3cc(F)ccc3F)[C@@H](N)C1)C2", "4 h"),
]

###

# Assay type: in vivo
# measurement parameters: male, human, plasma, po, 5 mg

# molecule, Tmax, h
data = [
    ("CS(=O)(=O)n1cc2c(n1)CN([C@H]1CO[C@H](c3cc(F)ccc3F)[C@@H](N)C1)C2 [omarigliptin]", 2),
]

###

# Format: in vivo
# measurement parameters: male, human, plasma, po, 1.5 mg

# substance smiles, scale unit, Tmax
measured = [
    ("CS(=O)(=O)n1cc2c(n1)CN([C@H]1CO[C@H](c3cc(F)ccc3F)[C@@H](N)C1)C2", "h", 1),
]

###

# Type: in vivo
# measurement parameters: male, human, plasma, po, 25 mg
readout: Tmax (min)

# substance smiles, readout, value observed
records = [
    ("CS(=O)(=O)n1cc2c(n1)CN([C@H]1CO[C@H](c3cc(F)ccc3F)[C@@H](N)C1)C2", "Tmax", 45),
]

###

# Format: in vivo
# measurement parameters: male, human, plasma, po, 200 mg

# substance smiles, Tmax
measured = [
    ("CS(=O)(=O)n1cc2c(n1)CN([C@H]1CO[C@H](c3cc(F)ccc3F)[C@@H](N)C1)C2", "1.5 h"),
]

###

# Assay type: in vivo
# measurement parameters: male, human, plasma, po, 50 mg
readout: Cmax (nM)

# substance smiles, readout, value observed
records = [
    ("CS(=O)(=O)n1cc2c(n1)CN([C@H]1CO[C@H](c3cc(F)ccc3F)[C@@H](N)C1)C2", "Cmax", 904),
]

###

# Assay type: in vivo, human
# measurement parameters: male, human, plasma, oral, 100 mg

# substance smiles, half-life / min
rows = [
    ("CS(=O)(=O)n1cc2c(n1)CN([C@H]1CO[C@H](c3cc(F)ccc3F)[C@@H](N)C1)C2", 2500),
]

###

# Assay type: in vivo
# measurement parameters: male, human, plasma, po, 400 mg

# substance smiles, Tmax
data = [
    ("CS(=O)(=O)n1cc2c(n1)CN([C@H]1CO[C@H](c3cc(F)ccc3F)[C@@H](N)C1)C2", "1 h"),
]

###

# Format: in vivo, human
# measurement parameters: male, human, urine and plasma, oral, 100 mg

# compound, CL renal [mL/min]
measured = [
    ("CS(=O)(=O)n1cc2c(n1)CN([C@H]1CO[C@H](c3cc(F)ccc3F)[C@@H](N)C1)C2 [omarigliptin]", 35),
]

###

# Type: in vivo
# measurement parameters: male, human, plasma, po, 50 mg

# compound, scale unit, Tmax
records = [
    ("CS(=O)(=O)n1cc2c(n1)CN([C@H]1CO[C@H](c3cc(F)ccc3F)[C@@H](N)C1)C2 [omarigliptin]", "h", 1.5),
]

###

# Assay type: in vivo
# measurement parameters: male, human, plasma, po, 12.5 mg
readout: Cmax (nM)

# molecule, scale unit, value observed
records = [
    ("CS(=O)(=O)n1cc2c(n1)CN([C@H]1CO[C@H](c3cc(F)ccc3F)[C@@H](N)C1)C2 [omarigliptin]", "nM", 219),
]

###

# Assay type: in vivo
# measurement parameters: male, human, plasma, po, 100 mg

# substance smiles, Tmax [min]
measured = [
    ("CS(=O)(=O)n1cc2c(n1)CN([C@H]1CO[C@H](c3cc(F)ccc3F)[C@@H](N)C1)C2", 45),
]

###

# Assay type: in vivo
# measurement parameters: male, human, plasma, po, 0.5 mg

# substance smiles, Tmax
records = [
    ("CS(=O)(=O)n1cc2c(n1)CN([C@H]1CO[C@H](c3cc(F)ccc3F)[C@@H](N)C1)C2", "45 min"),
]

###

# Assay type: in vivo
# measurement parameters: male, human, plasma, po, 200 mg
readout: AUC(0-inf) (µM·h)

# substance smiles, value observed
rows = [
    ("CS(=O)(=O)n1cc2c(n1)CN([C@H]1CO[C@H](c3cc(F)ccc3F)[C@@H](N)C1)C2", 162),
]

###

# Type: in vivo
# measurement parameters: male, human, plasma, po, 100 mg

# compound, Cmax
data = [
    ("CS(=O)(=O)n1cc2c(n1)CN([C@H]1CO[C@H](c3cc(F)ccc3F)[C@@H](N)C1)C2 [omarigliptin]", "2210 nM"),
]

###

# Assay type: in vivo, human
# measurement parameters: male, human, plasma, oral, 10 mg

# substance smiles, half-life
rows = [
    ("CS(=O)(=O)n1cc2c(n1)CN([C@H]1CO[C@H](c3cc(F)ccc3F)[C@@H](N)C1)C2", "83.2 h"),
]

###

# Format: in vivo
# measurement parameters: male, human, plasma, po, 1.5 mg

# molecule, scale unit, AUC(0-inf)
records = [
    ("CS(=O)(=O)n1cc2c(n1)CN([C@H]1CO[C@H](c3cc(F)ccc3F)[C@@H](N)C1)C2 [omarigliptin]", "µM·h", 1.7),
]

###

# Format: in vivo, human
# measurement parameters: male, human, plasma, oral, 50 mg

# substance smiles, half-life
data = [
    ("CS(=O)(=O)n1cc2c(n1)CN([C@H]1CO[C@H](c3cc(F)ccc3F)[C@@H](N)C1)C2", "48.3 h"),
]
